experiment: self-splicing fitness, log relative to wild type (ln ratio); higher = more splicing; Tetrahymena group I intron in knt gene, E. coli kanamycin selection, DiMSum; sequences stand for … in CUCUCU…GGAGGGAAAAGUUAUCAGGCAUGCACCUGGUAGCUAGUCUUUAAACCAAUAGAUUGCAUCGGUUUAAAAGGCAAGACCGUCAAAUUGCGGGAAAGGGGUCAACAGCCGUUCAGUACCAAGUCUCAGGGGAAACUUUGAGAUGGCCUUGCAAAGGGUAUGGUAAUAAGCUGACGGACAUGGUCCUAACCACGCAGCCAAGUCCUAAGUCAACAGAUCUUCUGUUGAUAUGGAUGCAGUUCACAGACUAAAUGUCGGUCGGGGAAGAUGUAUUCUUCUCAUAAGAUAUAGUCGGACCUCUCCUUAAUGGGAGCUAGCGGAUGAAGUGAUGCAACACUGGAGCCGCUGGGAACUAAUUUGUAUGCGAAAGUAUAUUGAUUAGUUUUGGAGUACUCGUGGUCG; conditions: 37 °C;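 further: selection with 25 µg/mL kanamycin versus none on LB agar overnight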
reported property: self-splicing fitness (ln)
Give a plain numeric answer without units written out.

Look at this sequence and give its reported self-splicing fitness (ln). UAACAGCAAUAUUACGGGUA 0.0689

Look at this sequence and give its reported self-splicing fitness (ln). UUAGAGCAAUAUUACGGUCA -1.34

Look at this sequence and give its reported self-splicing fitness (ln). CAACAGCAAUAUUACGCCUC -1.81

Look at this sequence and give its reported self-splicing fitness (ln). AAGUAGCAAUAUUACGCCCG -0.559

Look at this sequence and give its reported self-splicing fitness (ln). UCUAAGCAAUAUUACGCUUU -2.94

Look at this sequence and give its reported self-splicing fitness (ln). UUUGAGCAAUAUUACGCAAC -1.71

Look at this sequence and give its reported self-splicing fitness (ln). AUCAAGCAAUAUUACGCACG -2.28

Look at this sequence and give its reported self-splicing fitness (ln). AUCGAGCAAUAUUACGCAGG -2.77

Look at this sequence and give its reported self-splicing fitness (ln). AAGGAGCAAUAUUACGCCCC -1.42

Look at this sequence and give its reported self-splicing fitness (ln). CCAAAGCAAUAUUACGAGAC -2.31

Look at this sequence and give its reported self-splicing fitness (ln). ACCUAGCAAUAUUACGAAUA -2.94

Look at this sequence and give its reported self-splicing fitness (ln). AUUCAGCAAUAUUACGUUUG -1.54

Look at this sequence and give its reported self-splicing fitness (ln). CACAAGCAAUAUUACGUUGU -2.39

Look at this sequence and give its reported self-splicing fitness (ln). AGUAAGCAAUAUUACGGGGU -2.46

Look at this sequence and give its reported self-splicing fitness (ln). CCCUAGCAAUAUUACGGUGG -1.93

Look at this sequence and give its reported self-splicing fitness (ln). GUAAAGCAAUAUUACGAGCG 0.212

Reference source for all entries: the supplement of paper PMC7877785
